Values from patent US20130303507A1

# target_or_system: Cdk9/cyclinT1 (Homo sapiens)
# test_name: Cdk9/cyclinT1 Alpha Screen protocol
# Type: biochemical
# Design: Full length wild type Cdk9/cyclin T1 is purchased from Invitrogen; purchased Invitrogen PV4131
# details: TFA salt; individual determinations; read-out: CDK9_cyclinT1_AS2_IC50
Give pIC50 for every item shown.
Numbers only, as −log10 of the molar value.

Solved entries (count: 4):
N#CC1(CNc2cccc(-c3cc(N[C@H]4CC[C@H](NC[C@@H](O)CF)CC4)ncc3Cl)n2)CCOCC1 :: 9.70
C[C@H](O)[C@@H](C)N[C@H]1CC[C@H](Nc2cc(-c3cccc(NCC4(C#N)CCOCC4)n3)c(Cl)cn2)CC1 :: 9.64
CC(C)(C)OCCN(CCOC(C)(C)C)[C@H]1CC[C@H](Nc2cc(-c3cccc(NCC4(C#N)CCOCC4)n3)c(Cl)cn2)CC1 :: 8.07
N#CC1(CNc2cccc(-c3cc(N[C@H]4CC[C@H](N[C@@H]5CCCC[C@H]5O)CC4)ncc3Cl)n2)CCOCC1 :: 9.27

For each of the compounds below, state pIC50.
1. N#CC1(CNc2cccc(-c3cc(N[C@H]4CC[C@H](NC[C@H](O)CF)CC4)ncc3Cl)n2)CCOCC1
2. N#CC1(CNc2cccc(-c3cc(N[C@H]4CC[C@H](N[C@H]5CCCC[C@@H]5O)CC4)ncc3Cl)n2)CCOCC1
3. N#CC1(CNc2cccc(-c3cc(N[C@H]4CC[C@H](O)CC4)ncc3F)n2)CCOCC1
4. C[C@@](O)(CN[C@H]1CC[C@H](Nc2cc(-c3cccc(NCC4(C#N)CCOCC4)n3)ccn2)CC1)C(F)(F)F
5. CO[C@H]1CCN([C@H]2CC[C@H](Nc3cc(-c4cccc(NCC5(C#N)CCOCC5)n4)c(Cl)cn3)CC2)C1
6. COCCN[C@H]1CC[C@H](Nc2cc(-c3cncc(OCC4(C#N)CCOCC4)n3)c(F)cn2)CC1
7. N#CC1(COc2cncc(-c3cc(N[C@H]4CC[C@H](N)CC4)ncc3F)n2)CCOCC1
8. COC[C@@H](C)NC[C@H]1CC[C@H](Nc2cc(-c3cccc(NCC4(C#N)CCOCC4)n3)c(Cl)cn2)CC1

# output
9.77
9.48
9.86
9.01
9.08
9.69
9.33
9.15

Field: pIC50. Fill in for each record below.
1. C[C@](O)(CN[C@H]1CC[C@H](Nc2cc(-c3cccc(NCC4(C#N)CCOCC4)n3)ccn2)CC1)C(F)(F)F
2. N#CC1(CNc2cccc(-c3cc(N[C@H]4CC[C@H](CN5CCOCC5)CC4)ncc3Cl)n2)CCOCC1

# output
1: 9.04; 2: 8.73

----------
# target_or_system: Cdk9/cyclinT1 (Homo sapiens, UniProt P50750)
# Sequence (P50750 whole entry): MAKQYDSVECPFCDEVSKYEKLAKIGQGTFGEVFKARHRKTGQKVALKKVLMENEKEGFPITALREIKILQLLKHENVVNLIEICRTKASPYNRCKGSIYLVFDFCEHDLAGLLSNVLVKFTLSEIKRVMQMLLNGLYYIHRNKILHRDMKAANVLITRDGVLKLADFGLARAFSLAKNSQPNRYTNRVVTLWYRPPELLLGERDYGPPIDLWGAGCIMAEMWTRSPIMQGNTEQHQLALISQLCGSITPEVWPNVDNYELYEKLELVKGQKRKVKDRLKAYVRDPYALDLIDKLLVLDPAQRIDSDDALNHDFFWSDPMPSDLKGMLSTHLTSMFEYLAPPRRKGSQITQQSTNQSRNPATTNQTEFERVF
# Sequence (O60563 whole entry partner): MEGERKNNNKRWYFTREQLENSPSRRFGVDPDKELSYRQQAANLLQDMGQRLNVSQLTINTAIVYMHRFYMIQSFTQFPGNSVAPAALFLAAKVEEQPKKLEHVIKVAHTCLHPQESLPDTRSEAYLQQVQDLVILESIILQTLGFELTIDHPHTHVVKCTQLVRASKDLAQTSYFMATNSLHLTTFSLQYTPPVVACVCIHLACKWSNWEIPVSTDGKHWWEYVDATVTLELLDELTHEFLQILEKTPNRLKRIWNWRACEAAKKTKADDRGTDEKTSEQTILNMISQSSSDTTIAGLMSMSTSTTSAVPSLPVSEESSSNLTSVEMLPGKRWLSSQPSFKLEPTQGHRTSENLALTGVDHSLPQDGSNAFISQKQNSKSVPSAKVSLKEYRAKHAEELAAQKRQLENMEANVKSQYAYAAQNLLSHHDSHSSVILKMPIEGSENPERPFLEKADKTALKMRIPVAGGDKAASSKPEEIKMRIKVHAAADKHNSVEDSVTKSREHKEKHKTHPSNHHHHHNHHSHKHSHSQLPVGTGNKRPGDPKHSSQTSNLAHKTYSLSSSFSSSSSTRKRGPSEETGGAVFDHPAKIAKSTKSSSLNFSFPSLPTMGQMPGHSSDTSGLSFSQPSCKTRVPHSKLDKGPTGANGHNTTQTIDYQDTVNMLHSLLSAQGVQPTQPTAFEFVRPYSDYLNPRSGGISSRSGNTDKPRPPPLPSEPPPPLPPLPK
# test_name: Cdk9/cyclinT1 Alpha Screen protocol
# Format: biochemical
# Design: Full length wild type Cdk9/cyclin T1 is purchased from Invitrogen; purchased Invitrogen PV4131
# details: TFA salt; individual determinations; read-out: CDK9_cyclinT1_AS2_IC50
# Protocol: Cdk9/cyclinT1 Alpha Screen Protocol Full length wild type Cdk9/cyclin T1 is purchased from Invitrogen, cat#PV4131. […] The cdk7tide peptide substrate, biotin-[…] -OH, is a custom synthesis purchased from the Tufts University Core Facility. The final concentration of cdk7tide peptide substrate is 200 nM. […] When the donor and acceptor beads are in close proximity, the reactive oxygen generated by the irradiation of the donor beads initiates a luminescence/fluorescence cascade in the acceptor beads. […]
readout_name: IC50 (nM)
Answers are plain numbers, in nM.

CO[C@H]1CCN([C@H]2CC[C@@H](Nc3cc(-c4cccc(NCC5(C#N)CCOCC5)n4)c(Cl)cn3)CC2)C1 :: 26.1
CC(C)(C)OCCN[C@H]1CC[C@H](Nc2cc(-c3cccc(NCC4(C#N)CCOCC4)n3)c(Cl)cn2)CC1 :: 2.19
COC[C@H](C)NC[C@H]1CC[C@H](Nc2cc(-c3cccc(NCC4(C#N)CCOCC4)n3)c(Cl)cn2)CC1 :: 0.867

Look at each compound and report its IC50.
1. N#CC1(COc2cncc(-c3cc(N[C@H]4CC[C@H](NCCC(F)(F)F)CC4)ncc3Cl)n2)CCOCC1
2. C[C@H](N[C@H]1CC[C@H](Nc2cc(-c3cccc(NCC4(C#N)CCOCC4)n3)c(Cl)cn2)CC1)[C@@H](C)O

# output
1: 0.321; 2: 0.303

----------
# target_or_system: Cdk9/cyclinT1 (Homo sapiens, UniProt P50750)
# test_name: Cdk9/cyclinT1 Alpha Screen protocol
# Type: biochemical
# Design: Full length wild type Cdk9/cyclin T1 is purchased from Invitrogen; purchased Invitrogen PV4131
# details: neutral species; individual determinations; read-out: CDK9_cyclinT1_AS2_IC50
readout_name: IC50 (nM)
One number for each entry, in nM.

N#CC1(COc2cncc(-c3cc(N[C@H]4CC[C@H](NCCC(F)(F)F)CC4)ncc3Cl)n2)CCOCC1 [Compound 562] :: 0.549

Next:
# input So what's the measured IC50 for this one? N#CC1(COc2cncc(-c3cc(N[C@H]4CC[C@H](NC[C@@H](O)C(F)(F)F)CC4)ncc3Cl)n2)CCOCC1 [Compound 575]
# output 0.215

----------
# target_or_system: Cdk9/cyclinT1 (Homo sapiens, UniProt P50750)
# test_name: Cdk9/cyclinT1 IMAP protocol (fluorescence polarization)
# details: IC-50, CDK9; lower limit of assay 0.0005 micromolar
readout_name: IC50 (nM)
Answers are plain numbers, in nM.

N#CC1(CNc2cccc(-c3cc(N[C@H]4CC[C@@H](N5CCNC(=O)C5)CC4)ncc3Cl)n2)CCOCC1 :: 8.5
N#CC1(CNc2cccc(-c3cc(N[C@H]4CCCc5ccccc54)ncc3Cl)n2)CCOCC1 :: 480
COC[C@H](C)N[C@H]1CC[C@H](Nc2cc(-c3cccc(NCC4(O)CCOCC4)n3)c(Cl)cn2)CC1 :: 7
CO[C@H]1C[C@@H](Nc2cc(-c3cccc(NCC4(C#N)CCOCC4)n3)c(Cl)cn2)CC[C@@H]1N :: 10
CO[C@@H]1CC[C@H](Nc2cc(-c3cccc(NCC4(C#N)CCOCC4)n3)c(Cl)cn2)C[C@H]1N :: 20

Please supply IC50 for each of the following items, keeping them in order.
1. COCCO[C@H]1CC[C@H](Nc2cc(-c3cccc(NCC4(C#N)CCOCC4)n3)c(Cl)cn2)CC1
2. CO[C@@H]1CCN([C@H]2CC[C@H](Nc3cc(-c4cccc(NCC5(C#N)CCOCC5)n4)c(Cl)cn3)CC2)C1

# output
1: 4.9; 2: 0.8

----------
# target_or_system: Cdk9/cyclinT1 (Homo sapiens)
# test_name: Cdk9/cyclinT1 IMAP protocol (fluorescence polarization)
# details: IC-50, CDK9; lower limit of assay 0.0005 micromolar
Please provide measured pIC50 for the entries that follow.
Answers are plain numbers, as −log10 of the molar value.

N#CC1(CNc2cccc(-c3cc(NC4CCOCC4)ncc3Cl)n2)CCOCC1 :: 8.77
COC[C@H](C)N[C@H]1CC[C@H](Nc2cc(-c3ccc(F)c(NC[C@H]4CCOC(C)(C)C4)n3)c(Cl)cn2)CC1 :: 8.72
N#CC1(CNc2cccc(-c3cc(NCC4CCOCC4)ncc3Cl)n2)CCOCC1 :: 8.52

Each molecule below has a recorded value; state its pIC50.
1. N#CC1(COc2cncc(-c3cc(N[C@H]4CC[C@H](N)CC4)ncc3Cl)n2)CCOCC1
2. CO[C@@H]1CCN([C@H]2CC[C@@H](Nc3cc(-c4cccc(NCC5(C#N)CCOCC5)n4)c(Cl)cn3)CC2)C1
3. COCCN[C@@H]1CC[C@@H](Nc2cc(-c3cccc(NCC4(C#N)CCOCC4)n3)c(Cl)cn2)C1
4. N#CC1(CNc2cccc(-c3cc(N[C@@H]4CC[C@@H](N(CC5CCCO5)CC5CCCO5)C4)ncc3Cl)n2)CCOCC1 (some centres unmarked)

# output
1. 9.22
2. 7.72
3. 9.22
4. 8.26

----------
# target_or_system: Cdk9/cyclinT1 (Homo sapiens)
# test_name: Cdk9/cyclinT1 IMAP protocol (fluorescence polarization)
# details: IC-50, CDK9; lower limit of assay 0.0005 micromolar
readout_name: IC50 (nM)
Give bare numbers, in nM.

The examples below pair each entry with its known result.
NC(=O)C1(CNc2cccc(-c3cc(N[C@H]4CC[C@H](N)CC4)ncc3F)n2)CCOCC1 [Compound 485] :: 1.8
CC1(C)CN([C@H]2CC[C@H](Nc3cc(-c4cccc(NCC5(C#N)CCOCC5)n4)c(Cl)cn3)CC2)CCO1 [Compound 416] :: 21
N#CC1(CNc2cccc(-c3cc(NC4CNC4)ncc3Cl)n2)CCOCC1 [Example 401] :: 81
COC[C@@H](C)N[C@H]1CC[C@H](Nc2cc(-c3cccc(NCCC#N)n3)c(Cl)cn2)CC1 [Compound 445] :: 2.1
CCOC(=O)C(C)(C)NC[C@H]1CC[C@H](Nc2cc(-c3cccc(NCC4(C#N)CCOCC4)n3)c(Cl)cn2)CC1 [Compound 425] :: 1.1

Please give IC50 for each item listed below.
1. N#CC1(CNc2cccc(-c3cc(N[C@H]4CC[C@H](N5CCOCC5)CC4)ncc3Cl)n2)CCOCC1 [Compound 442]
2. CC(O)(C(=O)N[C@H]1CC[C@H](Nc2cc(-c3cccc(NCC4(C#N)CCOCC4)n3)c(Cl)cn2)CC1)C(F)(F)F (stereo partly shown) [Compound 431]
3. N#CC1(CNc2cccc(-c3cc(N[C@@H]4CCCc5ccccc54)ncc3Cl)n2)CCOCC1 [Compound 500]
4. COCCN[C@H]1CC[C@H](Nc2cc(-c3cncc(OCC4(C#N)CCOCC4)n3)c(Cl)cn2)CC1 [Compound 510]
5. COC[C@H](C)N[C@H]1CC[C@H](Nc2cc(-c3ccc(F)c(NC[C@@H]4CCOC(C)(C)C4)n3)c(Cl)cn2)CC1 [Compound 462]
6. C[C@@H]1COCCN1[C@H]1CC[C@H](Nc2cc(-c3cccc(NCC4(C#N)CCOCC4)n3)c(Cl)cn2)CC1 [Compound 503]

# output
1. 0.6
2. 1.7
3. 20
4. 1.3
5. 1.2
6. 2.6

Hey, quick one: what's IC50 for each of these?
1. COCC(C)(C)N[C@H]1CC[C@H](Nc2cc(-c3cccc(NCC4(C#N)CCOCC4)n3)c(Cl)cn2)CC1 [Compound 454]
2. C[C@@H]1CN([C@H]2CC[C@@H](Nc3cc(-c4cccc(NCC5(C#N)CCOCC5)n4)c(Cl)cn3)CC2)C[C@H](C)O1 [Compound 427]

# output
1: 2; 2: 8.2
